# TARGET ENTITY: Solute carrier organic anion transporter family member 1B1 (Homo sapiens)
# Sequence (Q9Y6L6 whole entry): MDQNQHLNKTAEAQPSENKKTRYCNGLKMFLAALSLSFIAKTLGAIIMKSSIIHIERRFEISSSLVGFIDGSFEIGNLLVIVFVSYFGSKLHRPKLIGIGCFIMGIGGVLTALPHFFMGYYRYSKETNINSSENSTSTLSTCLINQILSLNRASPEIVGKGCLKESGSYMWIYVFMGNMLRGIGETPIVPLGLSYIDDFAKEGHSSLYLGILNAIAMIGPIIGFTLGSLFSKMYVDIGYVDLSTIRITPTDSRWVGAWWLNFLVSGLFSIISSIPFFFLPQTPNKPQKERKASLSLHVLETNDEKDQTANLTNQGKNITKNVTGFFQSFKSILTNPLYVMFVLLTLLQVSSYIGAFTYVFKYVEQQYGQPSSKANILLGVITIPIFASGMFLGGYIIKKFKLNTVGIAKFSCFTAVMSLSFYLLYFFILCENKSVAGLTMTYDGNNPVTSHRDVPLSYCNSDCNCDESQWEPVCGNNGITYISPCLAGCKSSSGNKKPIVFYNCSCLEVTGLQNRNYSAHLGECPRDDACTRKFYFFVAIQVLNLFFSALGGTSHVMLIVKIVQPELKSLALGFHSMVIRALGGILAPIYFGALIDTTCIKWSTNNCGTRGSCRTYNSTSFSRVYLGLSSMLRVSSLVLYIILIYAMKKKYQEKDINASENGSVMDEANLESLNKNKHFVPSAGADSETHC
# CONDITION SUMMARY: chinese hamster, cho, 10 µM
Positions of bridges follow the written chain, without caps; N, C: chain ends. Non-standard residues stand in square brackets, D forms with d. Residues, ends and D or L forms follow the SMILES beside them. *: point of attachment. Ileψ(thiazoline)Cys = CC[C@H](C)[C@H](N)C1=N[C@H](C(=O)*)CS1; dOrn = NCCC[C@@H](N)C(=O)O
MEASURED ENDPOINT: residual activity

Recorded result, CC(C)[N+](C)(CCOC(=O)C1c2ccccc2Oc2ccccc21)C(C)C.[Br-] [PROPANTHELINE BROMIDE] , residual activity: 110.4%

Recorded result, CC[C@H](C)[C@H](N)C1=N[C@H](C(=O)N[C@@H](CC(C)C)C(=O)N[C@H](CCC(=O)O)C(=O)N[C@H](C(=O)N[C@H]2CCCCNC(=O)[C@H](CC(N)=O)NC(=O)[C@@H](CC(=O)O)NC(=O)[C@H](Cc3cnc[nH]3)NC(=O)[C@@H](Cc3ccccc3)NC(=O)[C@H]([C@@H](C)CC)NC(=O)[C@@H](CCCN)NC2=O)[C@@H](C)CC)CS1 [BACITRACIN] ({Ileψ(thiazoline)Cys}-L[dE]IK[dOrn]I[dF]H[dD]N; lactam 4-C) , residual activity: 78.2%

====

# TARGET ENTITY: Solute carrier organic anion transporter family member 1B3 (Homo sapiens, UniProt Q9NPD5)
# Sequence (Q9NPD5 whole entry): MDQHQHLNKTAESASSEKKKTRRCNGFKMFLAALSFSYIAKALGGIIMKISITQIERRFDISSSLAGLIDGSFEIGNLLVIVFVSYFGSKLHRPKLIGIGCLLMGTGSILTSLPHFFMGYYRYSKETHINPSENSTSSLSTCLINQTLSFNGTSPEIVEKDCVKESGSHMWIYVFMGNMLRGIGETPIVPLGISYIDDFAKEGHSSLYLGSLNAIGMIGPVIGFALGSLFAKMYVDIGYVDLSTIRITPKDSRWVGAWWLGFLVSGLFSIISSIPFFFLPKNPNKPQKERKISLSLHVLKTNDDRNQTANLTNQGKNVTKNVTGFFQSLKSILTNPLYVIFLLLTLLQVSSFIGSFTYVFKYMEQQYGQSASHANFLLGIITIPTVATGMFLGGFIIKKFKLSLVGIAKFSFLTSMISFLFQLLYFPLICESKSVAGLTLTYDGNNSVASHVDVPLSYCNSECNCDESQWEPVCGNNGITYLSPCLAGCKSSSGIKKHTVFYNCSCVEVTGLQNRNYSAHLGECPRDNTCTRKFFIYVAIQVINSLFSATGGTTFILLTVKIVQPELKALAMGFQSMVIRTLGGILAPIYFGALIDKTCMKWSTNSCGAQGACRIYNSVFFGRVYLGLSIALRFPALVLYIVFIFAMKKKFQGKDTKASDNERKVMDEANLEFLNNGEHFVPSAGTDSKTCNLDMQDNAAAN
# CONDITION SUMMARY: chinese hamster, cho, 10 µM
Please provide measured residual activity for the entries that follow.
Note: unit % is implicit; provide only the numeric part.

Recorded result, COc1ccc2c(c1)[C@@]1(C)CCC(=O)C[C@@H]1CC2 , residual activity: 89.3

Recorded result, CN(C)C(=O)Oc1cccc([N+](C)(C)C)c1.[Br-] [NEOSTIGMINE BROMIDE] , residual activity: 101.1

Recorded result, CC1=C2[C@H]3OC(=O)[C@@H](C)[C@@H]3CC[C@@]2(C)C=CC1=O [SANTONIN] , residual activity: 89.43

Recorded result, CC(C)CC(NC(=O)C(C)N)C(=O)O (racemic) [ALANYL-dl-LEUCINE] , residual activity: 98.55

Recorded result, O=c1c(O)c(-c2ccccc2)oc2cc(O)ccc12 [3,7-DIHYDROXYFLAVONE] , residual activity: 120.8

Recorded result, COc1cc2c(cc1O)C[C@H]1c3c(cc(O)c(OC)c3-2)CCN1C [BOLDINE] , residual activity: 100.1

Recorded result, NC(=O)N1c2ccccc2CC(=O)c2ccccc21 [OXCARBAZEPINE] , residual activity: 85.1

Recorded result, CC1=C2C(=CO[C@H](C)[C@H]2C)C(O)=C(C(=O)O)C1=O [CITRININ] , residual activity: 67.29

Recorded result, CC(C)c1c(O)ccc2c1CC[C@H]1[C@@](C)(CO)CCC[C@]21C [19-HYDROXYTOTAROL] , residual activity: 20.52

====

# TARGET ENTITY: Solute carrier organic anion transporter family member 1B1 (Homo sapiens, UniProt Q9Y6L6)
# CONDITION SUMMARY: chinese hamster, cho, 10 µM
Please provide measured residual activity for the entries that follow.
Note: unit % is implicit; provide only the numeric part.

Recorded result, CN(C)[C@@H]1C(O)=C(C(N)=O)C(=O)[C@@]2(O)C(O)=C3C(=O)c4c(O)ccc(Cl)c4[C@@H](O)[C@H]3C[C@@H]12.Cl [DEMECLOCYCLINE HYDROCHLORIDE] , residual activity: 104.7

Recorded result, COc1cc2c(cc1OC)-c1c(oc3c4c(ccc3c1=O)OC(C(C)C)C4)CO2 (stereo not drawn) [DEHYDRODIHYDROROTENONE] , residual activity: 89.82

Recorded result, O=C(Oc1cc(OC(=O)c2ccccc2)c2c(c1)O[C@H](c1ccc(OC(=O)c3ccccc3)c(OC(=O)c3ccccc3)c1)[C@@H](OC(=O)c1ccccc1)C2)c1ccccc1 [CATECHIN PENTABENZOATE] , residual activity: 113.2

Recorded result, CSc1nc(NC(C)C)nc(NC(C)C)n1 , residual activity: 175.4

Recorded result, O=C1c2ccccc2C(=O)c2c1ccc(O)c2O , residual activity: 84.81

Recorded result, NC1=NCCN1CC(=O)O , residual activity: 108.2

Recorded result, Cc1ccc2c(Cl)cc(Cl)c(O)c2n1 , residual activity: 98.6

Recorded result, O=C1c2ccc(O)c(O)c2C(=O)c2c(O)ccc(O)c21 , residual activity: 57.07

====

# TARGET ENTITY: Solute carrier organic anion transporter family member 1B1 (Homo sapiens, UniProt Q9Y6L6)
# CONDITION SUMMARY: chinese hamster, cho, 10 µM
MEASURED ENDPOINT: residual activity

Short answer on Solute carrier organic anion transporter family member 1B1 (Homo sapiens, UniProt Q9Y6L6) for Cc1cc(=O)c2c(O)c(C)c(O)cc2o1 , residual activity: 77.61%

Short answer on Solute carrier organic anion transporter family member 1B1 (Homo sapiens, UniProt Q9Y6L6) for CCOC(=O)c1ccc(N)cc1 , residual activity: 129.5%

Short answer on Solute carrier organic anion transporter family member 1B1 (Homo sapiens, UniProt Q9Y6L6) for COc1ccc(-c2cc(=O)c3c(OC(C)=O)cc(OC(C)=O)cc3o2)cc1 [ACACETIN DIACETATE] , residual activity: 133.5%

Short answer on Solute carrier organic anion transporter family member 1B1 (Homo sapiens, UniProt Q9Y6L6) for COc1ccccc1OCC(O)CN1CCN(CC(=O)Nc2c(C)cccc2C)CC1 (stereo not given) , residual activity: 70.75%

Short answer on Solute carrier organic anion transporter family member 1B1 (Homo sapiens, UniProt Q9Y6L6) for CCN1CCCC1CNC(=O)c1cc(S(N)(=O)=O)ccc1OC (stereo not given) [SULPIRIDE] , residual activity: 121.8%

====

# TARGET ENTITY: Solute carrier organic anion transporter family member 1B3 (Homo sapiens)
# CONDITION SUMMARY: chinese hamster, cho, 10 µM
Please provide measured residual activity for the entries that follow.

Recorded result, OCCN(CCO)c1nc(N2CCCCC2)c2nc(N(CCO)CCO)nc(N3CCCCC3)c2n1 [DIPYRIDAMOLE] , residual activity: 89.24%

Recorded result, C=C(C)[C@H]1CC=C(C(=O)O)CC1 [PERILLIC ACID (-)] , residual activity: 105%

Recorded result, Cc1cc(C2CCCCC2)n(O)c(=O)c1.NCCO [CICLOPIROX OLAMINE] , residual activity: 106%

Recorded result, COc1ccnc(C[S+]([O-])c2nc3ccc(OC(F)F)cc3[nH]2)c1OC (stereo not drawn) [PANTOPRAZOLE] , residual activity: 79.12%

Recorded result, C[C@@H]1C[C@H](O)[C@@]2(O)[C@]13CC(=O)OC[C@]2(C)[C@@](C)(O)C(=O)C3 , residual activity: 109.4%

Recorded result, CN1[C@@H](CC(=O)c2ccccc2)CCC[C@H]1C[C@H](O)c1ccccc1.Cl [LOBELINE HYDROCHLORIDE] , residual activity: 108.5%

Recorded result, COc1c2occc2cc2ccc(=O)oc12 [METHOXSALEN] , residual activity: 107.3%

Recorded result, COc1cc(C2Oc3cc([C@H]4Oc5cc(O)cc(O)c5C(=O)[C@@H]4O)ccc3OC2CO)ccc1O (stereo partly drawn) [SILIBININ] , residual activity: 46.89%

Recorded result, C[C@H]1C[C@H]2[C@@H]3CCC4=CC(=O)C=C[C@]4(C)[C@@]3(F)[C@@H](O)C[C@]2(C)[C@@]1(O)C(=O)CO [BETAMETHASONE] , residual activity: 102.7%

Recorded result, CC(=O)O.N=C(N)N/N=C/c1c(Cl)cccc1Cl [GUANABENZ ACETATE] , residual activity: 87.6%

Recorded result, CC[C@]12CCCN3CCc4c(n(c5ccccc45)[C@@](O)(C(=O)OC)C1)[C@@H]32 [VINCAMINE] , residual activity: 88.88%

Recorded result, CCOC(=O)C1=C(C)NC(C)=C(C(=O)OC)C1c1cccc([N+](=O)[O-])c1 (stereo not drawn) [NITRENDIPINE] , residual activity: 77.72%

Recorded result, O=C1CC[C@]23/C=C/C(=O)NCCCCNCCCNC(=O)/C=C\c4ccc(c2c4)O[C@@H]3C1 , residual activity: 100.4%

Recorded result, [N-]=[N+]=CC(=O)OC[C@H](N)C(=O)O [AZASERINE] , residual activity: 107.6%

Recorded result, CCCCCC1C(=O)CCC1CC(=O)OC (stereo not drawn) [DIHYDROJASMONIC ACID, METHYL ESTER] , residual activity: 82.72%

Recorded result, O=c1[nH]c(=O)n([C@H]2C[C@H](O)[C@@H](CO)O2)cc1C(F)(F)F [TRIFLURIDINE] , residual activity: 84.35%

Recorded result, CCC1(C)CC(=O)NC1=O (stereo not drawn) [ETHOSUXIMIDE] , residual activity: 102.9%

Recorded result, CC(C)N(C(=O)CCl)c1ccccc1 [PROPACHLOR] , residual activity: 110.5%
